Every entry's value here was drawn from ChEMBL document CHEMBL3872245.

system: H460; assay: Inhibition of P-gp in drug resistant human H460 cells assessed as reduction in cell viability measured after 48 hrs by sulforhodamine B assay; type: cell-based
assay readout: GI50

Some compounds with known GI50 results, for comparison:
Quick note, GI50 for `COc1cc(/C=C/C(=O)CC(=O)/C=C/c2ccc(OCc3cn(CCO[C@@H]4O[C@H](COC(C)=O)[C@H](OC(C)=O)[C@H](OC(C)=O)[C@H]4NC(C)=O)nn3)c(OC)c2)ccc1OCc1cn(CCO[C@@H]2O[C@H](COC(C)=O)[C@H](OC(C)=O)[C@H](OC(C)=O)[C@H]2NC(C)=O)nn1` landed at > 150 µM

Just so you know, measured GI50 for COc1cccc2c1C(=O)c1c(O)c3c(c(O)c1C2=O)C[C@@](O)(C(=O)CO)C[C@@H]3O[C@H]1C[C@H](N)[C@H](O)[C@H](C)O1 [DOXORUBICIN] came out at > 0.15 µM

Looking up `COc1cc(/C=C/C(C)=O)ccc1OCc1cn(CCO[C@@H]2O[C@H](COC(C)=O)[C@H](OC(C)=O)[C@H](OC(C)=O)[C@H]2NC(C)=O)nn1` , I see its GI50 listed as > 150 µM

Proceed to the following item.
// `COC(=O)COc1ccc(/C=C/C(C)=O)cc1OC` : GI50 value = > 150 µM
